- target_or_test_system: Gonadotropin-releasing hormone receptor (Rattus norvegicus, UniProt P30969)
- Sequence (P30969 whole entry): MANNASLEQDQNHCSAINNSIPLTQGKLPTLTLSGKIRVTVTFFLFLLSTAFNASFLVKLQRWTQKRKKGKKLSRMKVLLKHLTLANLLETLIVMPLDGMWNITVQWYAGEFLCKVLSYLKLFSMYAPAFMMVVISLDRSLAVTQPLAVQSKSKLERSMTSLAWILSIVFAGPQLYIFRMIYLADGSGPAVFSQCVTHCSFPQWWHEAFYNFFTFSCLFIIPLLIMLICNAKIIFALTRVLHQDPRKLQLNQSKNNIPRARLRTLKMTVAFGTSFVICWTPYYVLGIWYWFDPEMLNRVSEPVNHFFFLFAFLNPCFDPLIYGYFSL
- procedure_details: Dissociation constant was determined in vitro using rat pituitary membranes and [125I]-leuprolide as radioligand, at concentration 3.16*10e-6 M
- Format: cell membranes
pKd: −log10 of the molar value.

- compound: "CC(=O)N1CCN(c2ccc(OCC3COC(Cn4ccnc4)(c4ccc(Cl)cc4Cl)O3)cc2)CC1 (stereo unspecified)"
  pKd: 9.66

* * *

- target_or_test_system: Gonadotropin-releasing hormone receptor (Rattus norvegicus)
- procedure_details: Dissociation constant was determined in vitro using rat pituitary membranes, at concentration 1.0*10e-5 M
- Assay type: cell membranes

- compound: "CC(=O)N1CCN(c2ccc(OCC3COC(Cn4ccnc4)(c4ccc(Cl)cc4Cl)O3)cc2)CC1 (stereo unspecified) [KETOCONAZOLE]"
  Kd, nM: 0.375

* * *

- target_or_test_system: UniProt:P30969
- procedure_details: Binding affinity at LH-RH receptor in rat pituitary using [125I]leuprolide as radioligand

- compound: "CC(=O)N1CCN(c2ccc(OCC3COC(Cn4ccnc4)(c4ccc(Cl)cc4Cl)O3)cc2)CC1 (stereo unspecified) [KETOCONAZOLE]"
  IC50 (nM): 2000
